Tested on: HCT-15 colon
Outcomes: active, inactive

> print(dat)
                                   compound   target.desc  classification
1  CCN(CC)CCNCC(=O)Oc1ccc(/C=C/C(=O)CC(=O)/C=C/c2ccc(OC(=O)CNCCN(CC)CC)c(OC)c2)cc1OC  HCT-15 colon        inactive
2    CC(=O)Oc1ccc(Nc2c3ccccc3nc3ccccc23)cc1  HCT-15 colon        inactive
3  CC(=O)OCC1OC([S-])C(OC(C)=O)C(OC(C)=O)C1OC(C)=O.CC[PH+](CC)CC.CC[PH+](CC)CC.[Au].[Au] (centres undefined)  HCT-15 colon          active
4  COc1ccc(-c2cc(-c3cccn3C)c(C#N)c(N)n2)cc1OC  HCT-15 colon        inactive
5  CCN(CC)CCOc1ccc(/C(=C(\C)c2ccc(F)c(OC)c2)c2ccc(Cl)cc2)cc1  HCT-15 colon        inactive
6  Cc1sc2nc(NCCc3c[nH]c4ccc(Cl)cc34)[nH]c(=O)c2c1C  HCT-15 colon        inactive
7  CN(C)Cc1c[nH]c2c1C(=O)c1c(c(O)c3ccccc3c1O)C2=O  HCT-15 colon        inactive
8   COc1cc2cn3c4ccc(O)cc4[nH]c(=O)c3c2cc1OC  HCT-15 colon          active
9  NC(=O)C(=CNc1nc(-c2ccc(Cl)c(Cl)c2)cs1)C(N)=O  HCT-15 colon        inactive

* * *

Test system: COLO 205 colon
Outcomes: active, inactive

> print(dat)
                                   molecule  classification
1  Cc1c(C2Nc3ccccc3C2C)[nH]c2ccccc12 (stereo unspecified)        inactive
2  Cc1cc(NC(=O)c2ccc(C)c(Nc3nccc(-c4cccnc4)n3)c2)cc(-n2cnc(C)c2)c1        inactive
3  CCN1C(=O)N(CC)C2C1NC(=S)N2/N=C/C=C/c1cccs1 (stereo unspecified)          active
4  O=C(CCCN1CC=C(n2c(=O)[nH]c3ccccc32)CC1)c1ccc(F)cc1        inactive
5  O=C1c2ccn(CCCCNC(CO)(CO)CO)c2C(=O)c2c1c(O)c1ccccc1c2O        inactive
6  COc1cc(NC(C)CCCN)c2nccc(C)c2c1OC (stereo unspecified)        inactive

* * *

Tested on: SW-620 colon
Assay: NCI tumour cell line growth inhibition, 48 h
readout: TGI

> print(dat)
                                    molecule  readout     result
 1  Fc1ccc(Nc2cc(-n3nnc4ccccc43)nc3ccccc23)cc1      TGI   > 100 µM
 2            CN(C)c1ccc2nc3ccc(=O)cc-3sc2c1      TGI   > 100 µM
 3  O=C(c1ccccc1)c1c(-c2ccccc2)[nH]n(-c2ccc([N+](=O)[O-])cc2)c(=O)c1=O      TGI   > 100 µM
 4  O=C(O)c1ccc(NNc2cc(=O)[nH]c(=O)[nH]2)cc1      TGI   > 100 µM
 5         O=C(Nc1cccc(Cl)c1)c1cc2ccccc2cc1O      TGI   > 100 µM
 6  C/C(=C1/CCCC2(N=NCC2c2ccccc2)C1=O)c1ccccc1 (centres undefined)      TGI   > 100 µM
 7        c1ccc2c3ccn4cc5c(cc4c-3nc2c1)CCCC5      TGI    9.85 µM
 8  COc1ccc(C(=O)C(CO)Oc2ccccc2OC)cc1OC (centres undefined)      TGI   > 100 µM
 9       CCN(CC)CCn1nc(N)c2nc3cc(Cl)ccc3nc21      TGI   > 100 µM
10          O=C(Nc1ccc(Cl)cc1F)c1cc(Br)ccc1O      TGI  > 36.2 µM
11     O=c1cc(-c2ccccc2)[nH]c2cc3c(cc12)OCO3      TGI   > 100 µM
12  CCN(CC)CCOc1ccc(/C(=C(\C)c2ccc(F)c(OC)c2)c2ccc(Cl)cc2)cc1      TGI    4.28 µM
13  CCN(CC)CCNCC(=O)Oc1ccc(/C=C/C(=O)CC(=O)/C=C/c2ccc(OC(=O)CNCCN(CC)CC)c(OC)c2)cc1OC      TGI    9.93 µM
14  O=C1NC(=O)C(c2c[nH]c3cc(Br)ccc23)=C1c1cn(C(c2ccccc2)(c2ccccc2)c2ccccc2)cn1      TGI   > 100 µM
